Data provenance: ChEMBL document CHEMBL5579851

log10 of MIC: recorded values
tested on: Saccharomyces cerevisiae; assay: Antifungal activity against recombinant Saccharomyces cerevisiae Y2459 overexpressing CaErg11/CaCpr assessed as inhibition of fungal growth incubated for 48 hrs by CLSI based broth microdilution assay; type: functional
ATTRIBUTE_MEASURED: log10 of MIC (log10 of the value in µg/mL)

| MOLECULE | ASSAY_TARGET | ATTRIBUTE_MEASURED | READOUT_NUMBER |
| --- | --- | --- | --- |
| CC(=O)N1CCN(c2ccc(OCC3COC(Cn4ccnc4)(c4ccc(Cl)cc4Cl)O3)cc2)CC1 (configuration not stated) | Saccharomyces cerevisiae | log10 of MIC | -0.30 |
| CC[C@@H]([C@H](C)O)n1ncn(-c2ccc(N3CCN(c4ccc(OC[C@@H]5CO[C@@](Cn6cncn6)(c6ccc(F)cc6F)C5)cc4)CC3)cc2)c1=O | Saccharomyces cerevisiae | log10 of MIC | -0.90 |
| C[C@@H](c1nc(-c2ccc(C#N)cc2)cs1)[C@](O)(Cn1cncn1)c1ccc(F)cc1F | Saccharomyces cerevisiae | log10 of MIC | -2.10 |
| OC(Cn1cncn1)(Cn1cncn1)c1ccc(F)cc1F | Saccharomyces cerevisiae | log10 of MIC | 0.30 |
| C[C@@H](c1ncncc1F)[C@](O)(Cn1cncn1)c1ccc(F)cc1F | Saccharomyces cerevisiae | log10 of MIC | -1.80 |
| C[C@@H](OCc1ccn(Cc2ccc(F)cc2)n1)[C@](O)(Cn1cncn1)c1ccc(F)cc1F | Saccharomyces cerevisiae | log10 of MIC | -1.50 |
| C[C@@H](OCc1ccn(Cc2ccc(Cl)cc2)n1)[C@](O)(Cn1cncn1)c1ccc(F)cc1F | Saccharomyces cerevisiae | log10 of MIC | -2.10 |
